These measurements were taken from ChEMBL document CHEMBL3991601.

Biological target: MAP kinase-activated protein kinase 5 (Homo sapiens); further: in the data inactive means no Kd found up to 30 µM
Sequence (Q8IW41 whole entry): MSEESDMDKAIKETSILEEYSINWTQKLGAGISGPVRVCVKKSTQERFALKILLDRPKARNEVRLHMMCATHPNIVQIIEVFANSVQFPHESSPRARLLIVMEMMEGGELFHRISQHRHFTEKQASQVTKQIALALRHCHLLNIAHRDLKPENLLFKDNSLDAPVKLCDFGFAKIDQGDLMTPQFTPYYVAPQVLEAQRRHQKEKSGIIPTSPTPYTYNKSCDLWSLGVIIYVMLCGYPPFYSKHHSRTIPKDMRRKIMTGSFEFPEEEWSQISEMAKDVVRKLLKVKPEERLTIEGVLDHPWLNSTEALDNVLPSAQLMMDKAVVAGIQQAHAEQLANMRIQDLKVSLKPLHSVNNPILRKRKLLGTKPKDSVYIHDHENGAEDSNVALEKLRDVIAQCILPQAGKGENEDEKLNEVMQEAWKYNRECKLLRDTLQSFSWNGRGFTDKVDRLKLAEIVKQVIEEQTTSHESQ
Active and inactive are the calls of the source.
Outcome codes: active, inactive

compound	class
Cc1nc2cc(-n3ncc(C(=O)c4cc5ccccc5[nH]4)c3N)ccc2[nH]1	inactive
COc1ncc(-c2ccc3nccc(-c4ccnnc4)c3c2)cc1NS(=O)(=O)c1ccc(F)cc1F	inactive
NC(=O)Nc1cc(-c2cccc(F)c2)sc1C(=O)N[C@H]1CCCNC1	inactive
Cc1cc(C(=O)NOCCO)c(Nc2ccc(I)cc2F)n(C)c1=O	inactive
O=C1NC(=O)[C@@H](c2cn3c4c(cccc24)CCC3)[C@@H]1c1c[nH]c2ccccc12 [TIVANTINIB]	inactive
Cc1cc(Nc2ncnc3ccc(NC4=NC(C)(C)CO4)cc23)ccc1Oc1ccn2ncnc2c1	inactive
CC(=O)c1cnc2ccc(-c3cc(Cl)c(O)c(Cl)c3)nc2c1N[C@H]1CC[C@H](CN(C)C)CC1	active
CNC(=O)c1nn(C)c2c1C(C)(C)Cc1cnc(Nc3ccc(N4CCN(C)CC4)cc3)nc1-2	inactive

###

Molecular target: Tyrosine-protein kinase SYK (Homo sapiens, UniProt P43405); further: in the data inactive means no Kd found up to 30 µM
Active and inactive are the calls of the source.
Possible outcomes: Y = active, N = inactive

compound	class
COc1ccc(S(=O)(=O)N(C(C)=O)c2ccccc2/C=C/c2cc[n+]([O-])cc2)cc1	N
Cn1cc(-c2cnn3c(N)c(Br)c([C@@H]4CCCNC4)nc23)cn1	N
O=C(Nc1c[nH]nc1-c1nc2cc(CN3CCOCC3)ccc2[nH]1)NC1CC1	Y
Cc1cnc(NC(=O)Nc2cc(Br)c(C)cc2OC[C@@H]2CNCCO2)cn1	N
Nc1ncnc2c1c(-c1cccc(OCc3ccccc3)c1)cn2[C@H]1C[C@@H](CN2CCC2)C1	N
C[C@@H](N)c1ccc(C(=O)Nc2ccnc3[nH]ccc23)cc1	N
COc1cc2ncnc(Oc3cccc(NC(=O)Nc4cc(C(C)(C)C(F)(F)F)on4)c3)c2cc1OC	N
COc1cc2c(Nc3ccc(Cl)c(Cl)c3F)ncnc2cc1OC[C@@H]1C[C@@H]2CN(C)C[C@@H]2C1	N

###

Reported Kd by item:
Target: Cytochrome c1, heme protein, mitochondrial (Homo sapiens); further: in the data inactive means no Kd found up to 30 µM
Sequence (P08574 whole entry): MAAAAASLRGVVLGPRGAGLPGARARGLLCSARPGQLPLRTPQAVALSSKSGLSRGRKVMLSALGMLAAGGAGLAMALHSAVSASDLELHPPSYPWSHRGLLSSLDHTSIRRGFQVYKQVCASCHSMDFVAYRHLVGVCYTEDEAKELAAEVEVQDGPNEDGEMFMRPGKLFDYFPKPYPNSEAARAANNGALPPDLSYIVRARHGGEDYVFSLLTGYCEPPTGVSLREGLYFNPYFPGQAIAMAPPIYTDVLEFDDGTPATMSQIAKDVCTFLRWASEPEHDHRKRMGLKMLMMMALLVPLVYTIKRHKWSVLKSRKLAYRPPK
Where a name gives a salt, the structure may show the parent alone. Active and inactive are the calls of the source.
metric: Kd

compound	observed
Cc1csc(-c2nnc(Nc3ccc(Oc4ncccc4-c4ccnc(N)n4)cc3)c3ccccc23)c1 [AMG-900]	> 30 µM (inactive)
O=C(Nc1nc2cccc(-c3ccc(CN4CCS(=O)(=O)CC4)cc3)n2n1)C1CC1 [FILGOTINIB]	> 30 µM (inactive)
O=C(Nc1c[nH]nc1-c1nc2cc(CN3CCOCC3)ccc2[nH]1)NC1CC1 [AT-9283]	> 30 µM (inactive)
CC(=O)c1cnc2ccc(-c3cc(Cl)c(O)c(Cl)c3)nc2c1N[C@H]1CC[C@H](CN(C)C)CC1	> 30 µM (inactive)
NC1(c2ccc(-c3nc4ccn5c(=O)[nH]nc5c4cc3-c3ccccc3)cc2)CCC1 [MK-2206]	> 30 µM (inactive)
COc1cc2ncnc(Oc3cccc(NC(=O)Nc4cc(C(C)(C)C(F)(F)F)on4)c3)c2cc1OC [CEP-32496]	> 30 µM (inactive)
C[C@@H](Oc1cc(-n2cnc3ccc(CN4CCN(C)CC4)cc32)sc1C(N)=O)c1ccccc1C(F)(F)F [GSK-461364]	> 30 µM (inactive)
Cn1cnc2c(F)c(Nc3ccc(Br)cc3F)c(C(=O)NOCCO)cc21 [BINIMETINIB]	> 30 µM (inactive)
CC(=O)NCC(=O)N1[C@@H]2CC[C@H]1c1ccc(Nc3ncc(C(F)(F)F)c(NC4CCC4)n3)cc12 [PF-03814735]	> 30 µM (inactive)
COCc1c(-c2ccc(NC(=O)Nc3cc(C(F)(F)F)ccc3F)c(F)c2)c2c(N)ncnn2c1CN1CCOCC1	> 30 µM (inactive)
CCn1cc(-c2ccnc3[nH]c(-c4cccc(CN(C)C)c4)cc23)c(-c2ccc(NC(=O)N(C)C)cc2)n1 [GSK-1070916]	> 30 µM (inactive)
CCS(=O)(=O)N1CCN(c2ccc(Nc3ncc(C(N)=O)c(NC4CC4)n3)cc2)CC1 [Cerdulatinib Hydrochloride]	> 30 µM (inactive)
CO[C@H]1C[C@@H]2CC[C@@H](C)[C@@](O)(O2)C(=O)C(=O)N2CCCC[C@H]2C(=O)O[C@H]([C@H](C)C[C@@H]2CC[C@@H](OP(C)(C)=O)[C@H](OC)C2)CC(=O)[C@H](C)/C=C(\C)[C@@H](O)[C@@H](OC)C(=O)[C@H](C)C[C@H](C)/C=C/C=C/C=C/1C [RIDAFOROLIMUS]	> 30 µM (inactive)
C[C@@H](N)c1ccc(C(=O)Nc2ccnc3[nH]ccc23)cc1 [Y-39983]	> 30 µM (inactive)
CN(C[C@@H]1COCCO1)S(=O)(=O)Nc1ccc2ccc3ncc(-c4cnn(C)c4)cc3c(=O)c2c1 [MK-2461]	> 30 µM (inactive)
CC(C)c1cc(CNc2nc(Nc3cc(C4CC4)[nH]n3)cc(N3CCN(C)CC3)n2)on1 [XL-228]	> 30 µM (inactive)
C[C@H]1CNCCCN1S(=O)(=O)c1cccc2cncc(F)c12	> 30 µM (inactive)
Nc1ncnc2c1c(-c1cccc(OCc3ccccc3)c1)cn2[C@H]1C[C@@H](CN2CCC2)C1 [AEW-541]	> 30 µM (inactive)
Cc1[nH]c(/C=C2\C(=O)Nc3ccccc32)c(C)c1CCC(=O)O [ORANTINIB]	> 30 µM (inactive)
Cc1cnc(NC(=O)Nc2cc(Br)c(C)cc2OC[C@@H]2CNCCO2)cn1 [RABUSERTIB]	> 30 µM (inactive)

###

Target: MAP/microtubule affinity-regulating kinase 3 (Homo sapiens, UniProt P27448); further: in the data inactive means no Kd found up to 30 µM
Sequence (P27448 whole entry): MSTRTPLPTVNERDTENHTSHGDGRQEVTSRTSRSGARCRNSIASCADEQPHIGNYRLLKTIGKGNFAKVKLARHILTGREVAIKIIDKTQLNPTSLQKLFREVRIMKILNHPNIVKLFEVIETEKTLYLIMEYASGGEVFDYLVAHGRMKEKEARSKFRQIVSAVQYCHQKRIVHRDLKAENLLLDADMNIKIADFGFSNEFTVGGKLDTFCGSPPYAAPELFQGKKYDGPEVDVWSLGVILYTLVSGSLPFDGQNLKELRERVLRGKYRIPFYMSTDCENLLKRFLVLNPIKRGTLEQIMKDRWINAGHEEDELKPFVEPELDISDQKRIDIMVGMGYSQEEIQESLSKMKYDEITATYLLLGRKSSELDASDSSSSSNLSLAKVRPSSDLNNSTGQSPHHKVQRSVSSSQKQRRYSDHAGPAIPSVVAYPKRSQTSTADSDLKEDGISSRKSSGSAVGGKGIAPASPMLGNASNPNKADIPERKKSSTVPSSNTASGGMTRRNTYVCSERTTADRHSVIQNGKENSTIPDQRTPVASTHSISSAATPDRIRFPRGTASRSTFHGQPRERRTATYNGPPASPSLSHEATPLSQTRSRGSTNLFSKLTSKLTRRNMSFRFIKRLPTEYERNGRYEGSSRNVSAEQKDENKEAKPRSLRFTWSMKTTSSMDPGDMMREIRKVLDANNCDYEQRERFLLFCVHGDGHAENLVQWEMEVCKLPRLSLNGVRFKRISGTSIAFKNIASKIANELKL
Active and inactive are the calls of the source.
Outcome codes: active, inactive

compound	assay-system	class
COCc1c(-c2ccc(NC(=O)Nc3cc(C(F)(F)F)ccc3F)c(F)c2)c2c(N)ncnn2c1CN1CCOCC1	MAP/microtubule affinity-regulating kinase 3 (Homo sapiens, UniProt P27448)	inactive
CCOc1cc2ncc(C#N)c(Nc3ccc(F)c(Cl)c3)c2cc1NC(=O)/C=C/CN(C)C	MAP/microtubule affinity-regulating kinase 3 (Homo sapiens, UniProt P27448)	inactive
O=C(Nc1nc2cccc(-c3ccc(CN4CCS(=O)(=O)CC4)cc3)n2n1)C1CC1	MAP/microtubule affinity-regulating kinase 3 (Homo sapiens, UniProt P27448)	inactive
C[C@@H](N)c1ccc(C(=O)Nc2ccnc3[nH]ccc23)cc1	MAP/microtubule affinity-regulating kinase 3 (Homo sapiens, UniProt P27448)	active
Cc1cc(Nc2ncc(Cl)c(Nc3ccccc3S(=O)(=O)C(C)C)n2)c(OC(C)C)cc1C1CCNCC1	MAP/microtubule affinity-regulating kinase 3 (Homo sapiens, UniProt P27448)	inactive
CCNC(=O)C#Cc1ccc2c(c1)NC(=O)/C2=C(\Nc1ccc(CN(C)C)cc1)c1ccccc1	MAP/microtubule affinity-regulating kinase 3 (Homo sapiens, UniProt P27448)	inactive
Cc1nc(NC(=O)N2CCC[C@H]2C(N)=O)sc1-c1ccnc(C(C)(C)C(F)(F)F)c1	MAP/microtubule affinity-regulating kinase 3 (Homo sapiens, UniProt P27448)	inactive
O=C(Nc1cc(C(F)(F)F)cc(C(F)(F)F)c1)c1cc(Cl)ccc1O	MAP/microtubule affinity-regulating kinase 3 (Homo sapiens, UniProt P27448)	inactive
FC(F)(F)c1ccc(/C=C/c2nc(COc3ccc(CCCCn4ccnn4)cc3)co2)cc1	MAP/microtubule affinity-regulating kinase 3 (Homo sapiens, UniProt P27448)	inactive
CN1C/C=C/CCOc2cccc(c2)-c2ccnc(n2)Nc2cccc(c2)C1	MAP/microtubule affinity-regulating kinase 3 (Homo sapiens, UniProt P27448)	inactive
Cn1cc(-c2cnc3ccc4ccc(CS(=O)(=O)NCc5ccccn5)cc4c(=O)c3c2)cn1	MAP/microtubule affinity-regulating kinase 3 (Homo sapiens, UniProt P27448)	inactive
Cc1nc2cc(-n3ncc(C(=O)c4cc5ccccc5[nH]4)c3N)ccc2[nH]1	MAP/microtubule affinity-regulating kinase 3 (Homo sapiens, UniProt P27448)	inactive
COc1ccc(S(=O)(=O)N(C(C)=O)c2ccccc2/C=C/c2cc[n+]([O-])cc2)cc1	MAP/microtubule affinity-regulating kinase 3 (Homo sapiens, UniProt P27448)	inactive
CC(=O)c1cnc2ccc(-c3cc(Cl)c(O)c(Cl)c3)nc2c1N[C@H]1CC[C@H](CN(C)C)CC1	MAP/microtubule affinity-regulating kinase 3 (Homo sapiens, UniProt P27448)	inactive
CO[C@H]1C[C@@H]2CC[C@@H](C)[C@@](O)(O2)C(=O)C(=O)N2CCCC[C@H]2C(=O)O[C@H]([C@H](C)C[C@@H]2CC[C@@H](O)[C@H](OC)C2)CC(=O)[C@H](C)/C=C(\C)[C@@H](O)[C@@H](OC)C(=O)[C@H](C)C[C@H](C)/C=C/C=C/C=C/1C	MAP/microtubule affinity-regulating kinase 3 (Homo sapiens, UniProt P27448)	inactive
